# System: BT20
# assaySummary: normalised growth rate inhibition (GR value) relative to DMSO control (GR (1 = untreated growth, 0 = cytostasis, <0 = cytotoxic)); higher = less growth inhibition
# conditions: 0.04 µM; 72 h
reportedProperty: normalised growth rate inhibition
Lab note: record the figure alone, no unit after it.

Below: 6 compounds and their reported normalised growth rate inhibition.
COc1cc(C(=O)N2CCC(N3CCN(C)CC3)CC2)ccc1Nc1ncc2c(n1)N(C)c1ccccc1C(=O)N2C | 0.885
Nc1ccc(-c2ccc3ncc4ccc(=O)n(-c5cccc(C(F)(F)F)c5)c4c3c2)cn1 | -0.0219
Nc1cccc(-c2cc3c(Oc4cccc(O)c4)ncnc3[nH]2)c1 | 1.02
CS(=O)(=O)N1CCN(Cc2cc3nc(-c4cccc5[nH]ncc45)nc(N4CCOCC4)c3s2)CC1 | 0.717
CC(C)(C)c1cnc(CSc2cnc(NC(=O)C3CCNCC3)s2)o1 | 0.885
COc1cc2ncn(-c3cc(OCc4ccccc4C(F)(F)F)c(C(N)=O)s3)c2cc1OC | 0.853

Quote BT20 normalised growth rate inhibition for entry CN(c1ccccc1CNc1nc(Nc2ccc3c(c2)CC(=O)N3)ncc1C(F)(F)F)S(C)(=O)=O .
0.902

Quote BT20 normalised growth rate inhibition for entry O=C1c2c(O)ccc(O)c2C(=O)c2c(NCCNCCO)ccc(NCCNCCO)c21 .
0.252

Quote BT20 normalised growth rate inhibition for entry C[C@]1(O)C[C@@H](c2nc(-c3ccc4ccc(-c5ccccc5)nc4c3)c3c(N)nccn32)C1 .
0.841

Quote BT20 normalised growth rate inhibition for entry COc1cc2ncnc(Nc3ccc(F)c(Cl)c3)c2cc1OCCCN1CCOCC1 .
1.04

Quote BT20 normalised growth rate inhibition for entry COC(=O)c1ccc2c(C(=Nc3ccc(N(C)C(=O)CN4CCN(C)CC4)cc3)c3ccccc3)c(O)[nH]c2c1 .
1.03

Quote BT20 normalised growth rate inhibition for entry COc1cc(C(=O)NC2CCN(C)CC2)ccc1Nc1ncc2c(n1)N(C1CCCC1)CCC(=O)N2C(C)C .
0.783

Quote BT20 normalised growth rate inhibition for entry C[C@@H]1C[C@H]2O[C@@H]2/C=C\C=C\C(=O)Cc2c(Cl)c(O)cc(O)c2C(=O)O1 .
0.839

Quote BT20 normalised growth rate inhibition for entry N#CC(c1ccnc(NCCc2cccnc2)n1)c1nc2ccccc2s1 (stereo not drawn) .
0.879

Quote BT20 normalised growth rate inhibition for entry OCCCNc1cc(-c2ccnc(Nc3cccc(Cl)c3)n2)ccn1 .
0.32

Quote BT20 normalised growth rate inhibition for entry C=CC(=O)Nc1cccc(Nc2nc(NC3CCC(N(C)C)CC3)nc3c2ncn3C(C)C)c1 (stereo not drawn) .
0.223

Quote BT20 normalised growth rate inhibition for entry Cc1cnc(-c2cnc(NCCNc3ccc(C#N)cn3)nc2-c2ccc(Cl)cc2Cl)[nH]1 .
0.915

Quote BT20 normalised growth rate inhibition for entry Nc1ccc(C(=O)Nc2cccc(-c3nc(N4CCOCC4)c4oc5ncccc5c4n3)c2)cn1 .
1.06

---

# Test system: SKBR3
# assaySummary: normalised growth rate inhibition (GR value) relative to DMSO control (GR (1 = untreated growth, 0 = cytostasis, <0 = cytotoxic)); higher = less growth inhibition
# conditions: 10 µM; 72 h
reportedProperty: normalised growth rate inhibition
Lab note: record the figure alone, no unit after it.

Cc1cnc(Nc2ccc(OCCN3CCCC3)cc2)nc1Nc1cccc(S(=O)(=O)NC(C)(C)C)c1 | -0.201
N#CCNC(=O)c1ccc(-c2ccnc(Nc3ccc(N4CCOCC4)cc3)n2)cc1 | 0.0674
CC(=O)Nc1nc(C)c(-c2ccc(Cl)c(S(=O)(=O)NCCO)c2)s1 | 0.00524

Identify measured normalised growth rate inhibition corresponding to N#CC[C@H](C1CCCC1)n1cc(-c2ncnc3[nH]ccc23)cn1
0.81

Identify measured normalised growth rate inhibition corresponding to C=CC(=O)N1CCc2ccc(-n3c(=O)ccc4cnc5ccc(-c6cnn(C)c6)cc5c43)cc21
-0.3

Identify measured normalised growth rate inhibition corresponding to C=CC(=O)Nc1cc2c(Nc3ccc(F)c(Cl)c3)ncnc2cc1OCCCN1CCOCC1
-0.261

Identify measured normalised growth rate inhibition corresponding to CCn1c(-c2nonc2N)nc2c(C#CC(C)(C)O)ncc(OC[C@H]3CCCNC3)c21
0.658

Identify measured normalised growth rate inhibition corresponding to CCCS(=O)(=O)Nc1ccc(F)c(C(=O)c2c[nH]c3ncc(Cl)cc23)c1F
0.254

Identify measured normalised growth rate inhibition corresponding to COc1cc2ncnc(-n3nc(-c4ccccn4)nc3N)c2cc1OC
0.479

Identify measured normalised growth rate inhibition corresponding to Cc1ccc(F)c(NC(=O)Nc2ccc(-c3cccc4[nH]nc(N)c34)cc2)c1
0.232

Identify measured normalised growth rate inhibition corresponding to COc1cc(N2CCC(C(N)=O)CC2)ccc1Nc1nc(N)c(Cl)c(Nc2ccccc2S(=O)(=O)C(C)C)n1
0.133

Identify measured normalised growth rate inhibition corresponding to COc1cc(C(=O)NC2CCN(C)CC2)ccc1Nc1ncc2c(n1)N(C1CCCC1)CCC(=O)N2C(C)C
0.511

Identify measured normalised growth rate inhibition corresponding to CC[C@H](CO)Nc1nc(NCc2ccccc2)c2ncn(C(C)C)c2n1
0.146

Identify measured normalised growth rate inhibition corresponding to Cc1cc([C@@H](C)Nc2ccccc2C(=O)O)c2nc(N3CCOCC3)cc(=O)n2c1
-0.107

Identify measured normalised growth rate inhibition corresponding to CC(=O)Nc1cccc(-n2c(=O)n(C3CC3)c(=O)c3c(Nc4ccc(I)cc4F)n(C)c(=O)c(C)c32)c1
0.631

Identify measured normalised growth rate inhibition corresponding to COc1cc(C(=O)N2CCC(N3CCN(C)CC3)CC2)ccc1Nc1ncc2c(n1)N(C)c1ccccc1C(=O)N2C
0.0641

Identify measured normalised growth rate inhibition corresponding to CN1CCN(c2ccc3nc(-c4c(N)c5c(F)cccc5[nH]c4=O)[nH]c3c2)CC1
0.142

Identify measured normalised growth rate inhibition corresponding to CC(C)CC(=O)Nc1n[nH]c2c1CN(C(=O)C1CCN(C)CC1)C2(C)C
-0.305

Identify measured normalised growth rate inhibition corresponding to O=C(NOCC1CC1)c1ccc(F)c(F)c1Nc1ccc(I)cc1Cl
0.611

Identify measured normalised growth rate inhibition corresponding to c1ccc2c(-c3cnn4cc(-c5ccc(N6CCNCC6)cc5)cnc34)ccnc2c1
-0.515

Identify measured normalised growth rate inhibition corresponding to COc1cc2ncn(-c3cc(OCc4ccccc4C(F)(F)F)c(C(N)=O)s3)c2cc1OC
0.0233

Identify measured normalised growth rate inhibition corresponding to COC(=O)c1ccc2c(C(=Nc3ccc(N(C)C(=O)CN4CCN(C)CC4)cc3)c3ccccc3)c(O)[nH]c2c1
0.0487

Identify measured normalised growth rate inhibition corresponding to CO[C@H]1C[C@@H]2CC[C@@H](C)[C@@](O)(O2)C(=O)C(=O)N2CCCC[C@H]2C(=O)O[C@H]([C@H](C)C[C@@H]2CC[C@@H](O)[C@H](OC)C2)CC(=O)[C@H](C)/C=C(\C)[C@@H](O)[C@@H](OC)C(=O)[C@H](C)C[C@H](C)/C=C/C=C/C=C/1C
0.353

Identify measured normalised growth rate inhibition corresponding to Cc1nc(NC(=O)N2CCC[C@H]2C(N)=O)sc1-c1ccnc(C(C)(C)C(F)(F)F)c1
-0.0922

Identify measured normalised growth rate inhibition corresponding to N#CC(c1ccnc(NCCc2cccnc2)n1)c1nc2ccccc2s1 (stereo not drawn)
0.383

Identify measured normalised growth rate inhibition corresponding to CC[C@@H]1C(=O)N(C)c2cnc(Nc3ccc(C(=O)NC4CCN(C)CC4)cc3OC)nc2N1C1CCCC1
-0.208

Identify measured normalised growth rate inhibition corresponding to Nc1cc(C(F)(F)F)c(-c2cc(N3CCOCC3)nc(N3CCOCC3)n2)cn1
-0.332

Identify measured normalised growth rate inhibition corresponding to CC(=O)c1c(C)c2cnc(Nc3ccc(N4CCNCC4)cn3)nc2n(C2CCCC2)c1=O
0.517

Identify measured normalised growth rate inhibition corresponding to Cc1cc(C(C)Nc2ccccc2)c2nc(N3CCOCC3)cc(=O)n2c1 (stereo not drawn)
0.888

Identify measured normalised growth rate inhibition corresponding to COc1ccc(-c2ccc3c(N4CCOC[C@@H]4C)nc(N4CCOC[C@@H]4C)nc3n2)cc1CO
-0.363

Identify measured normalised growth rate inhibition corresponding to O=C1c2c(O)ccc(O)c2C(=O)c2c(NCCNCCO)ccc(NCCNCCO)c21
-0.707

Identify measured normalised growth rate inhibition corresponding to CN1CCN(CCOc2cc(OC3CCOCC3)c3c(Nc4c(Cl)ccc5c4OCO5)ncnc3c2)CC1
0.207

Identify measured normalised growth rate inhibition corresponding to C[C@@H](Oc1cc(-c2cnn(C3CCNCC3)c2)cnc1N)c1c(Cl)ccc(F)c1Cl
-0.181
